System: MCF7 breast
Experiment notes: NCI-60 one-dose screen, 48 h
Conditions used: 10 µM unless noted
The panel holds about 83,000 compounds, 20% with a hit somewhere; the sample as a whole holds those more often. The source made the active and inactive calls. How the source made its calls: active means growth percent below 10; inactive means the rest.
Classes used: y for active, n for inactive

# Compound, Qualitative label
rows = [
    ("CCCCCc1c(C)[nH]c(/C=C2\\N=C(c3ccc[nH]3)C=C2Oc2ccc(OC)cc2)c1C", "y"),
    ("CCN(CCC#N)c1ccccc1", "n"),
    ("Cc1cccc2nc3ccccc3c(Nc3ccc(NS(C)(=O)=O)cc3)c12", "n"),
    ("C[C@@H]1CC2C3CCC4=CC(=O)C=C[C@]4(C)[C@@]3(Cl)[C@@H](O)C[C@]2(C)[C@@]1(OC(=O)c1ccco1)C(=O)CCl (stereo partly specified)", "n"),
    ("O=c1c2cc(Br)cc(Br)c2nc(-c2ccc(Cl)cc2)n1/N=C\\c1ccccc1F", "n"),
    ("ClCCn1cnc2c(SCc3ccccc3Cl)ncnc21", "n"),
    ("COc1cc2c(c(OC)c1O)C(=O)C(OC)C(c1ccc(O)c(O)c1)O2 (stereo unspecified)", "n"),
    ("COc1ccc(C(=O)C(CN(C)C)c2ccc(OC)cc2)cc1 (stereo unspecified)", "n"),
    ("CN(C)N1C(=O)c2c(Cl)c(Cl)c(Cl)c(Cl)c2C1=O", "n"),
    ("C=C(c1ccc(C(=O)NCCCn2ccnc2)cc1)c1cc2c(cc1C)C(C)(C)CCC2(C)C", "n"),
    ("Clc1ccc(Cl)c(N=Cc2ccc3c(c2)OCO3)c1", "n"),
    ("N/C(=N\\OC(=O)c1ccccc1)C(Cc1ccccc1)C(=O)NOC(=O)c1ccccc1 (stereo unspecified)", "n"),
    ("S=C(Nc1ccc(Cl)cc1)Nc1ccc(Cl)cc1 (tested in a mixture with another compound)", "y"),
    ("CC(C)(C)[Si](C)(C)OC1[C@@H](O[Si](C)(C)C(C)(C)C)[C@@H](CNC(=O)NC(=O)NC(=O)CCl)O[C@H]1n1cnc2c(NC(=O)Nc3ccccc3)ncnc21 (stereo partly specified)", "n"),
    ("COc1ccc2nc(C)cc(Sc3nc4ccccc4s3)c2c1", "n"),
    ("C=C1C(=O)O[C@H]2[C@H]1CC/C(COC(=O)NCc1cccc(OC)c1)=C\\CC[C@@]1(C)O[C@@H]21", "y"),
    ("COc1cc(C2CC(c3ccc(Cl)cc3)=NN2C(C)=O)ccc1Oc1nc2c(c(=O)n(C)c(=O)n2C)n1C (stereo unspecified)", "n"),
    ("COc1ccc(/C=C/c2nc(NCCCN(C)C)c3ccccc3n2)cc1", "y"),
    ("CCOC(=O)Cn1c(-c2nonc2NC(=O)c2ccccc2F)nc2ccccc21", "n"),
    ("N/C(=N\\O)c1ncc(-c2ccc(C(F)(F)F)cc2)c(NC2CCCCCC2)n1", "y"),
    ("O=C(N/N=C\\c1cc(Br)ccc1O)c1ccncc1", "y"),
]

====

Tested on: MOLT-4 leukemia
Experiment notes: NCI-60 one-dose screen, 48 h (100 = growth as untreated, 0 = no growth, -100 = all killed)
Conditions used: 10 µM unless noted
This is part of a sample that, as a whole, favours compounds with a hit. Of some 83,000 tested, about 20% had one in any assay.
# yes (1) = growth below 70% (exclusive); no (0) = growth at/above 70%

# Molecule, Target entity, Qualitative label
rows = [
    ("O=C1Nc2ccccc2/C1=C\\c1nc(C2CCN(S(=O)(=O)c3ccc(F)cc3)CC2)n2ccccc12", "MOLT-4 leukemia", "no (0)"),
    ("CN1C2CCC1/C(=C\\c1ccc(F)cc1)C(=O)/C2=C/c1ccc(F)cc1", "MOLT-4 leukemia", "yes (1)"),
    ("CCOC(=O)C#Cc1c(C(=O)OCC)nnn1[C@@H]1O[C@H](COC(C)=O)[C@@H](OC(C)=O)[C@H]1OC(C)=O", "MOLT-4 leukemia", "no (0)"),
    ("CCN(CC)c1cc(C)c(Cc2c(OC)ccc3ccccc23)cc1C", "MOLT-4 leukemia", "no (0)"),
    ("CCOC(=O)Cn1c(-c2nonc2NC(=O)c2ccccc2F)nc2ccccc21", "MOLT-4 leukemia", "yes (1)"),
    ("c1ccc2c(N=NSc3ncnc4nc[nH]c34)c3ccccc3nc2c1", "MOLT-4 leukemia", "yes (1)"),
    ("CCCCCCCCOC(=O)C(C)OC(=O)OCCOCCOC(=O)OC(C)C(=O)OCCCCCCCC (stereo unspecified)", "MOLT-4 leukemia", "no (0)"),
    ("COc1cc(C2C(C#N)=C(N)Oc3cc4c(cc32)OCO4)cc2c1OCO2 (stereo unspecified)", "MOLT-4 leukemia", "yes (1)"),
    ("CC(C)(C)c1ccc(OC(=O)Nc2ccccc2)cc1", "MOLT-4 leukemia", "yes (1)"),
    ("NS(=O)(=O)c1ccc(CCn2c(SCC(=O)N/N=C/c3ccccc3O)nc3ccccc3c2=O)cc1", "MOLT-4 leukemia", "yes (1)"),
    ("CCOC(OCC)c1cnc2nc(NC(C)=O)[nH]c(=O)c2n1", "MOLT-4 leukemia", "no (0)"),
    ("OC(CCCCCCCCC(O)CN1CCc2ccccc2C1)CN1CCc2ccccc2C1 (stereo unspecified)", "MOLT-4 leukemia", "no (0)"),
    ("CC(=O)O[C@@H]1CC2C(C)(C)CCCC2(C)C2=C1C(=O)C(C(C)C)=CC2=O (stereo partly specified)", "MOLT-4 leukemia", "yes (1)"),
    ("Cn1c(-c2ccccc2)cc(=O)n1-c1ccccc1", "MOLT-4 leukemia", "no (0)"),
    ("COc1ccc(-c2ccc(-c3ccc(C(=N)N)s3)s2)cc1", "MOLT-4 leukemia", "yes (1)"),
]
